measured.target: angiotensin I-converting enzyme (Oryctolagus cuniculus)
pIC50: −log10 of the molar value.
value.type: pIC50

molecule	pIC50
C[C@H](CS)C(=O)N1C(c2ccccc2O)SC[C@H]1C(=O)O (stereo partly drawn)	6.66

[a] O=C(O)[C@@H]1CSC(CCS)N1C(=O)CCS (single isomer, unassigned)
[b] C[C@H](CS)C(=O)N1CSC[C@H]1C(=O)O [Compound 96, reference compound]
Return label of the item with the larger pIC50. Candidates: a , b . Please respond with the label that marks your chosen entry.
b

====

measured.target: angiotensin I-converting enzyme (Oryctolagus cuniculus, UniProt P12822)
Sequence (P12822 34-1310): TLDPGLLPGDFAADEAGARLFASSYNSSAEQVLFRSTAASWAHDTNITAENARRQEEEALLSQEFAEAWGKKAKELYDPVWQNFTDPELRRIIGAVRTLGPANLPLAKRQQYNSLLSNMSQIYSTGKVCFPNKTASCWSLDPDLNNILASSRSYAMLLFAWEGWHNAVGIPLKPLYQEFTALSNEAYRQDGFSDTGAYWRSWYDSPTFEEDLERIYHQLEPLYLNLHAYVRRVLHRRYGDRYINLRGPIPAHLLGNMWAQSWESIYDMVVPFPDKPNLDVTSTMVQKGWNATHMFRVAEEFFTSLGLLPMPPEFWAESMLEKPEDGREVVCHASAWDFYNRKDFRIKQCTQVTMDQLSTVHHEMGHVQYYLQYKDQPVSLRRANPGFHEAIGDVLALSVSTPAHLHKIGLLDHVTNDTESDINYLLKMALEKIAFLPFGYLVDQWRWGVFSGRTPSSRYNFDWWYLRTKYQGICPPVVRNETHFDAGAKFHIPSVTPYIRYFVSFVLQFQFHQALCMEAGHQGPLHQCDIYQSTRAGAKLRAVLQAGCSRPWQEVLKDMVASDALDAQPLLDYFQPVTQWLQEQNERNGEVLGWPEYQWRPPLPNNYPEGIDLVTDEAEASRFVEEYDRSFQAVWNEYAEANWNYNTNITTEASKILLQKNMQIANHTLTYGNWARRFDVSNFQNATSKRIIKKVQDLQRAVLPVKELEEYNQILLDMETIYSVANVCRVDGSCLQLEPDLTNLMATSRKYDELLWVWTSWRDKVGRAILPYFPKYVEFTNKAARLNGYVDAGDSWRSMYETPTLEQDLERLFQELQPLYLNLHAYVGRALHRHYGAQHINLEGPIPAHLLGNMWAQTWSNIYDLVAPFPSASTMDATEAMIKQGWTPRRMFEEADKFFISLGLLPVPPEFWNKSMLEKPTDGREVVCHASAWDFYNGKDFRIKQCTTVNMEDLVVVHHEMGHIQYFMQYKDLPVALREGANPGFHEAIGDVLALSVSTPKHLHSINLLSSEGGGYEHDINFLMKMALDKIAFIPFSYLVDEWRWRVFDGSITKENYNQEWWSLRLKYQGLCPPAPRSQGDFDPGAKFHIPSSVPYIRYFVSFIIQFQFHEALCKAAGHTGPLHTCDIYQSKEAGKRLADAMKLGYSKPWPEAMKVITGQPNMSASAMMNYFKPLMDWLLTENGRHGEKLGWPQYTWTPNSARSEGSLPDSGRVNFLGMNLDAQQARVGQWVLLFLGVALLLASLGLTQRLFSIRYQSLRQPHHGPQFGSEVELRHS
value.type: IC50 (nM)

compound	IC50, nM
C[C@H](CS)C(=O)N1C(C2CCCCC2)SC[C@H]1C(=O)O (some centres unmarked) [Compound 4]	120
C[C@H](CS)C(=O)N1C(CCS)SC[C@H]1C(=O)O (single isomer, unassigned) [Compound 8a]	250

[1] C[C@H](CS)C(=O)N1C(Cc2ccccc2)SC[C@H]1C(=O)O (single isomer, unassigned) [Compound 10b]
[2] COc1cccc(C2SC[C@@H](C(=O)O)N2C(=O)CCS)c1O (some centres unmarked) [Compound 73]
[3] O=C(O)[C@@H]1CSC(c2ccc(O)cc2)N1C(=O)CCS (some centres unmarked) [Compound 56]
rank_up(items): orders items by reported IC50 in ascending numerical order. Reply with the labels, ordered as the question asks.
2, 1, 3
